Test system: human RORγ (Homo sapiens, UniProt P51449)
Construct: human RORγ, from Ser253 to Lys518; expressed in transfected cells; host or cells: CHO cells (Chinese hamster ovary), transient co-transfection with pG5-Luc
Sequence (P51449 253-518): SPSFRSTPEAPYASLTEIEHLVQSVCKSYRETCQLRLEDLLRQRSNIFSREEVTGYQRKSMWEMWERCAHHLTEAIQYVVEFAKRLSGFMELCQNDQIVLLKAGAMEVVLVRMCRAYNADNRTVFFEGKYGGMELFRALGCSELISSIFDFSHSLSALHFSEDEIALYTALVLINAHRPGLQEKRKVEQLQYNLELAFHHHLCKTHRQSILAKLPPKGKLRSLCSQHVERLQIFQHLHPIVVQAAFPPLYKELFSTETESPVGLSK
Assay notes: In vitro assay of inhibitory effect against RORγ transcriptional activity (GAL4-hRORγ LBD luciferase reporter gene assay in CHO cells)
Type: cell-based
Recorded conditions: GAL4-hRORγ LBD luciferase reporter, CHO cells; read-out: LUC EC50 hRORγ
In this section we review reported EC50 values for a set of compounds.
Use nM as the unit, but write only the number.

Below: 5 compounds and their reported EC50.
Give me measured EC50, please, for this compound: CC(C)CCOc1ccc([C@]2(C)NC(=O)N(CCC(=O)O)C=C2CC(C)C)c(F)c1Cl [Example 202] 87

Give me measured EC50, please, for this compound: CC(C)C1=CN([C@H](C)CC(=O)O)C(=O)N[C@@]1(C)c1ccc(CCC(C)(C)C)c(Cl)c1 [Example 236] 20

Give me measured EC50, please, for this compound: CC(C)(C)CCc1ccc([C@]2(C)NC(=O)N(CCC(=O)O)C=C2C2CC(F)(F)C2)cc1Cl [Example 319] 13

Give me measured EC50, please, for this compound: CC(C)C1=CN([C@@H]2CCC[C@@H]2C(=O)O)C(=O)N[C@@]1(C)c1ccc(CCC(C)(C)C)c(Cl)c1 [Example 234] 964

Give me measured EC50, please, for this compound: COc1cc(C(=O)O)ccc1N1C=C(C(C)C)[C@](C)(c2ccc(CCC(C)(C)C)c(Cl)c2)NC1=O [Example 221] 25

Next:
Give me measured EC50, please, for this compound: CC(C)(C)CCc1ccc([C@]2(C)NC(=O)N(C34CC(C(=O)O)(C3)C4)C=C2C2CC(F)(F)C2)cc1C(F)(F)F [Example 341] 67

Give me measured EC50, please, for this compound: CC(C)C1=CN(C23CCC(C(=O)O)(C2)C3)C(=O)N[C@@]1(C)c1ccc(CCC(C)(C)C)c(Cl)c1 [Example 272] 17

Give me measured EC50, please, for this compound: COc1cc(N2C=C(C3CC(F)(F)C3)[C@](C)(c3ccc(CCC(C)(C)C)c(Cl)c3)NC2=O)ccc1C(=O)O [Example 346] 26

Give me measured EC50, please, for this compound: COCC(C)C1=CN(C23CCC(C(=O)O)(C2)C3)C(=O)N[C@@]1(C)c1ccc(CCC(C)(C)C)c(Cl)c1 (single isomer, unassigned) [Example 352] 63

Give me measured EC50, please, for this compound: COC(C)CC1=CN(CCC(=O)O)C(=O)N[C@@]1(C)c1ccc([C@H]2C[C@@H](C(C)(C)C)C2)c(Cl)c1 (some centres unmarked) [Example 304] 21

Give me measured EC50, please, for this compound: COCC(C)C1=CN(c2ccc(C(=O)O)cc2)C(=O)N[C@@]1(C)c1ccc(CCC(C)(C)C)c(Cl)c1 (single isomer, unassigned) [Example 308] 32

Give me measured EC50, please, for this compound: CC(C)C1=CN(CCC(=O)O)C(=O)N[C@@]1(C)c1ccc(CC(O)C(C)(C)C)c(Cl)c1 (single isomer, unassigned) [Example 311] 86

Give me measured EC50, please, for this compound: CC(C)C1=CN(CCC(=O)O)C(=O)N[C@@]1(C)c1ccc(CC2CCOCC2)c(Cl)c1 [Example 290] 463

Give me measured EC50, please, for this compound: CO[C@H]1C[C@H](N2C=C([C@H]3C[C@@H](C(=O)O)C3)[C@](C)(c3ccc(CCC(C)(C)C)c(Cl)c3)NC2=O)C1 [Example 200] 14

Give me measured EC50, please, for this compound: CC1(C)CC=C(c2ccc([C@]3(C)NC(=O)N(CCC(=O)O)C=C3C3CC3)cc2Cl)CC1 [Example 321] 60

Give me measured EC50, please, for this compound: CCOC(=O)C1CNCC1N1C=C(C(C)C)[C@](C)(c2ccc(CCC(C)(C)C)c(Cl)c2)NC1=O (single isomer, unassigned) [Example 245] 261

Give me measured EC50, please, for this compound: COCC(C)C1=CN(C23CCC(C(=O)O)(C2)C3)C(=O)N[C@@]1(C)c1ccc(CCC(C)(C)C)c(Cl)c1 (single isomer, unassigned) [Example 351] 4

Give me measured EC50, please, for this compound: COc1cc([C@]2(C)NC(=O)N(CCC(=O)O)C=C2C(C)C)ccc1CCC(C)(C)C [Example 213] 131

Give me measured EC50, please, for this compound: COCCC1=CN(C23CCC(C(=O)O)(C2)C3)C(=O)N[C@@]1(C)c1ccc(CCC(C)(C)C)c(C(F)(F)F)c1 [Example 324] 47

###

In this section we review reported pEC50 values for a set of molecules.
Test system: mouse RORγ (Mus musculus, UniProt P51450)
Construct: mouse RORγ, from Ile251 to Lys516; expressed in transfected cells; host or cells: CHO cells (Chinese hamster ovary), transient co-transfection with pG5-Luc
Sequence (P51450 251-516): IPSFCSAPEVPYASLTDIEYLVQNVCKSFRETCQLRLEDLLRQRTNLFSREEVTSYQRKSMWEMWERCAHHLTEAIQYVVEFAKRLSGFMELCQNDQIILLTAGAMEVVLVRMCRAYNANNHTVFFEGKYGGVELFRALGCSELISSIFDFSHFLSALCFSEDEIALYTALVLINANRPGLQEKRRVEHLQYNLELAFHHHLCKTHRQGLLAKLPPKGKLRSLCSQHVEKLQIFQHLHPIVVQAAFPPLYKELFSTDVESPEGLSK
Assay notes: In vitro assay of inhibitory effect against RORγ transcriptional activity (GAL4-mRORγ LBD luciferase reporter gene assay in CHO cells)
Type: cell-based
Recorded conditions: GAL4-mRORγ LBD luciferase reporter, CHO cells; read-out: LUC EC50 mRORγ
pEC50 field: float, defined as -log10 of concentration (mol/L).

Give me measured pEC50, please, for this molecule: COCC(C)C1=CN(c2ccc(C(=O)O)cc2)C(=O)N[C@@]1(C)c1ccc(CCC(C)(C)C)c(Cl)c1 (single isomer, unassigned) [Example 308] 7.60

Give me measured pEC50, please, for this molecule: CC(C)C1=CN(CCC(=O)O)C(=O)N[C@@]1(C)c1ccc([C@H]2C[C@@H](C(C)C)C2)c(Cl)c1 7.80

Next:
Give me measured pEC50, please, for this molecule: CC(C)C1=CN(C23CCC(C(=O)O)(C2)C3)C(=O)N[C@@]1(C)c1ccc(CCC(C)(C)C)c(Cl)c1 7.44

Give me measured pEC50, please, for this molecule: CC(C)C1=CN(C2CCC(C(=O)O)C2)C(=O)N[C@@]1(C)c1ccc(CCC(C)(C)C)c(Cl)c1 (single isomer, unassigned) [Example 280] 7.38

Give me measured pEC50, please, for this molecule: COc1cc(N2C=C(C(C)C)[C@](C)(c3ccc(CCC(C)(C)C)c(C(F)(F)F)c3)NC2=O)ccc1C(=O)O 7.64

Give me measured pEC50, please, for this molecule: COc1cc(C(=O)O)ccc1N1C=C(C(C)C)[C@](C)(c2ccc(CCC(C)(C)C)c(Cl)c2)NC1=O 7.62

Give me measured pEC50, please, for this molecule: CC(C)(C)CCc1ccc([C@]2(C)NC(=O)N(CCC(=O)O)C=C2C2CC(F)(F)C2)cc1Cl 7.85

Give me measured pEC50, please, for this molecule: COC1CC(C2=CN(c3ccc(C(=O)O)cc3)C(=O)N[C@@]2(C)c2ccc(CCC(C)(C)C)c(Cl)c2)C1 (single isomer, unassigned) [Example 277] 7.42

Give me measured pEC50, please, for this molecule: COCCC1=CN(c2ccc(C(=O)O)cn2)C(=O)N[C@@]1(C)c1ccc(CC2CCCCC2)c(Cl)c1 7.92

Give me measured pEC50, please, for this molecule: COC[C@H]1C[C@@H](C2=CN(CCC(=O)O)C(=O)N[C@@]2(C)c2ccc(CCC(C)(C)C)c(Cl)c2)C1 6.93

Give me measured pEC50, please, for this molecule: CC(C)C1=CN(CCC(=O)O)C(=O)N[C@@]1(C)c1ccc(CC(O)C(C)(C)C)c(Cl)c1 (single isomer, unassigned) [Example 310] 6.56

Give me measured pEC50, please, for this molecule: COCCC1=CN(CCC(=O)O)C(=O)N[C@@]1(C)c1ccc(C2=CCC(C)(C)CC2)c(Cl)c1 8.10

Give me measured pEC50, please, for this molecule: CC(C)C1=CN(CC(C)C(=O)O)C(=O)N[C@@]1(C)c1ccc(CCC(C)(C)C)c(Cl)c1 (single isomer, unassigned) [Example 299] 7.80

Give me measured pEC50, please, for this molecule: CC(C)C1=CN(CCC(=O)O)C(=O)N[C@@]1(C)c1ccc(CC2CCC2)c(Cl)c1 6.86

Give me measured pEC50, please, for this molecule: CC(C)C1=CN(C2CCCC(C(=O)O)C2)C(=O)N[C@@]1(C)c1ccc(CCC(C)(C)C)c(Cl)c1 (single isomer, unassigned) [Example 255] 6.53

Give me measured pEC50, please, for this molecule: COCCC(C)(C)CC1=CN(c2ccc(C(=O)O)cc2)C(=O)N[C@@]1(C)c1ccc(CCC(C)(C)C)c(Cl)c1 7.13

Give me measured pEC50, please, for this molecule: CO[C@H]1C[C@H](N2C=C([C@H]3C[C@@H](C(=O)O)C3)[C@](C)(c3ccc(CCC(C)(C)C)c(Cl)c3)NC2=O)C1 7.64

Give me measured pEC50, please, for this molecule: CC(C)C1=CN(c2cc(C(=O)O)nn2C)C(=O)N[C@@]1(C)c1ccc(CCC(C)(C)C)c(Cl)c1 7.21

Give me measured pEC50, please, for this molecule: CC(C)CSc1ccc([C@]2(C)NC(=O)N(CCC(=O)O)C=C2C(C)C)cc1Cl 7.00

Give me measured pEC50, please, for this molecule: COCCC1=CN(c2ccc(C(=O)O)c(OC)c2)C(=O)N[C@@]1(C)c1ccc(C2=CCC(C)(C)CC2)c(Cl)c1 7.89
